The reported measurements were obtained from ChEMBL document CHEMBL4007433.

- EXPERIMENTAL PROTOCOL: Antiproliferative activity against human HCC1428 cells after 48 hrs by MTT assay
- Format: functional, cell-based
- CONDITION LABEL: HCC1428, 48 h
Where a name gives a salt, the structure may show the parent alone.
Give measured IC50 for each item. Keep answers brief.
Answers are plain numbers, in µM.

Sample answers from the record:
COc1cccc2c1C(=O)c1c(O)c3c(c(O)c1C2=O)C[C@@](O)(C(=O)CO)C[C@@H]3O[C@H]1C[C@H](N)[C@H](O)[C@H](C)O1 [DOXORUBICIN HYDROCHLORIDE]    1.77
Oc1ccc2cc1Oc1ccc(cc1)CCc1cccc(O)c1Oc1ccccc1CC2    19
COc1cccc2c1Oc1cc(O)c(O)cc1CCc1ccc(O)c(c1)Oc1ccc(cc1)CC2    1.51
Oc1cc2c(cc1O)Oc1c(O)cccc1CCc1ccc(cc1)Oc1cc(ccc1O)CC2    8.46
Oc1ccc2cc1Oc1ccc(cc1)CCc1ccc(O)c(c1)Oc1ccc(cc1)CC2    15.3

Take each entry in turn and give its IC50.
1. Oc1cc2ccc1Oc1ccc(cc1)CCc1cccc(O)c1Oc1cccc(c1)CC2
2. Oc1ccc2cc1Oc1ccc(cc1)/C=C\c1cccc(O)c1Oc1ccccc1CC2
3. Oc1ccc2c(c1)CCc1ccc(O)c(c1)Oc1ccc(cc1)CCc1cccc(O)c1O2
4. Oc1ccc2c(c1)CCc1ccc(O)c(c1)Oc1ccc(cc1O)CCc1cccc(O)c1O2

7.69
17.1
10.8
22

====

Please go through the items and note down their IC50.
- EXPERIMENTAL PROTOCOL: Antiproliferative activity against human HCC1428 cells after 48 hrs by MTT assay
- Type: functional, cell-based
- CONDITION LABEL: HCC1428, 48 h
Give bare numbers, in µM.

The cases that follow already have their IC50 on record.
Oc1ccc2cc1Oc1ccc(cc1)CCc1cc(O)c(c(O)c1)Oc1cccc(c1)CC2    25.2
Oc1ccc2cc1Oc1ccc(cc1)CCc1ccc(O)c(c1)Oc1cccc(c1)CC2    10.7
Oc1ccc2cc1Oc1ccc(cc1)CCc1cccc(O)c1Oc1ccc(cc1O)CC2    19.5

Respectfully, I request IC50 for each entry included below.
1. Oc1cc2ccc1Oc1cccc(c1)CCc1ccc(O)c(c1)Oc1ccc(cc1)CC2
2. Oc1ccc2cc1Oc1cccc(c1)CCc1ccc(O)c(c1)Oc1ccc(cc1O)CC2
3. Oc1ccc2cc1Oc1ccc(cc1)CCc1cccc(O)c1Oc1ccc(cc1)CC2
4. Oc1ccc2cc1Oc1ccc(cc1)CCc1ccc(O)c(c1)Oc1ccc(cc1O)CC2

1: 22.4; 2: 19.5; 3: 9.25; 4: 20.1

====

- Test system: K562
- EXPERIMENTAL PROTOCOL: Antiproliferative activity against human K562 cells after 48 hrs by MTT assay
- Format: functional, cell-based
- CONDITION LABEL: K562, 48 h
Structures can show the parent of a compound that is named as a salt.
EXPERIMENTAL READOUT: IC50

Oc1ccc2cc1Oc1ccc(cc1)CCc1cccc(O)c1Oc1ccccc1CC2    21.6 µM
Oc1ccc2cc1Oc1cccc(c1)CCc1ccc(O)c(c1)Oc1ccc(cc1O)CC2    10.9 µM
COc1cccc2c1C(=O)c1c(O)c3c(c(O)c1C2=O)C[C@@](O)(C(=O)CO)C[C@@H]3O[C@H]1C[C@H](N)[C@H](O)[C@H](C)O1 [DOXORUBICIN HYDROCHLORIDE]    0.57 µM
Oc1cc2ccc1Oc1ccc(cc1)CCc1cccc(O)c1Oc1cccc(c1)CC2    6.06 µM

# batch: return IC50 for each of the 5 compounds below
1. Oc1ccc2cc1Oc1ccc(cc1)CCc1ccc(O)c(c1)Oc1ccc(cc1O)CC2
2. Oc1ccc2cc1Oc1ccc(cc1)CCc1ccc(O)c(c1)Oc1ccc(cc1)CC2
3. Oc1ccc2c(c1)CCc1ccc(O)c(c1)Oc1ccc(cc1O)CCc1cccc(O)c1O2
4. Oc1ccc2cc1Oc1ccc(cc1)CCc1cc(O)c(c(O)c1)Oc1cccc(c1)CC2
5. Oc1cc2c(cc1O)Oc1c(O)cccc1CCc1ccc(cc1)Oc1cc(ccc1O)CC2

["15.6 µM", "10.2 µM", "25.3 µM", "29.9 µM", "6.16 µM"]

# per-item lookup of IC50; items listed below
1. Oc1ccc2cc1Oc1ccc(cc1)/C=C\c1cccc(O)c1Oc1ccccc1CC2
2. Oc1ccc2c(c1)CCc1ccc(O)c(c1)Oc1ccc(cc1)CCc1cccc(O)c1O2

["19.2 µM", "14.1 µM"]

For each of the compounds below, state IC50.
1. Oc1cc2ccc1Oc1cccc(c1)CCc1ccc(O)c(c1)Oc1ccc(cc1)CC2
2. Oc1ccc2cc1Oc1ccc(cc1)CCc1ccc(O)c(c1)Oc1cccc(c1)CC2

1. 15.7 µM
2. 7.02 µM

Record IC50 per entry; entries follow.
1. Oc1ccc2cc1Oc1ccc(cc1)CCc1cccc(O)c1Oc1ccc(cc1)CC2
2. Oc1ccc2cc1Oc1ccc(cc1)CCc1cccc(O)c1Oc1ccc(cc1O)CC2
3. COc1cccc2c1Oc1cc(O)c(O)cc1CCc1ccc(O)c(c1)Oc1ccc(cc1)CC2

8.52 µM
24.9 µM
1.74 µM

====

- Test system: HT-29
- EXPERIMENTAL PROTOCOL: Antiproliferative activity against human HT-29 cells after 48 hrs by MTT assay
- Format: functional, cell-based
- CONDITION LABEL: HT-29, 48 h
Where a name gives a salt, the structure may show the parent alone.
EXPERIMENTAL READOUT: pIC50
Answers are plain numbers, as −log10 of the molar value.

Oc1ccc2cc1Oc1ccc(cc1)CCc1ccc(O)c(c1)Oc1ccc(cc1)CC2    4.94

Give one value of pIC50 per listed molecule.
1. Oc1ccc2cc1Oc1ccc(cc1)CCc1ccc(O)c(c1)Oc1cccc(c1)CC2
2. COc1cccc2c1C(=O)c1c(O)c3c(c(O)c1C2=O)C[C@@](O)(C(=O)CO)C[C@@H]3O[C@H]1C[C@H](N)[C@H](O)[C@H](C)O1 [DOXORUBICIN HYDROCHLORIDE]
3. Oc1cc2ccc1Oc1cccc(c1)CCc1ccc(O)c(c1)Oc1ccc(cc1)CC2
4. Oc1ccc2c(c1)CCc1ccc(O)c(c1)Oc1ccc(cc1)CCc1cccc(O)c1O2
5. Oc1cc2ccc1Oc1ccc(cc1)CCc1cccc(O)c1Oc1cccc(c1)CC2
6. Oc1ccc2cc1Oc1ccc(cc1)CCc1ccc(O)c(c1)Oc1ccc(cc1O)CC2

1: 5.10; 2: 5.75; 3: 4.90; 4: 5.10; 5: 4.94; 6: 4.83

====

What pIC50 was measured for each of the following?
- Tested on: HT-29
- EXPERIMENTAL PROTOCOL: Antiproliferative activity against human HT-29 cells after 48 hrs by MTT assay
- Type: functional, cell-based
- CONDITION LABEL: HT-29, 48 h
Give bare numbers, as −log10 of the molar value.

Oc1ccc2cc1Oc1ccc(cc1)CCc1cccc(O)c1Oc1ccccc1CC2    4.91
Oc1ccc2cc1Oc1cccc(c1)CCc1ccc(O)c(c1)Oc1ccc(cc1O)CC2    4.91

Items follow; give pIC50 for each.
1. COc1cccc2c1Oc1cc(O)c(O)cc1CCc1ccc(O)c(c1)Oc1ccc(cc1)CC2
2. Oc1ccc2cc1Oc1ccc(cc1)CCc1cccc(O)c1Oc1ccc(cc1)CC2

5.70
5.12

====

- Tested on: HT-29
- EXPERIMENTAL PROTOCOL: Antiproliferative activity against human HT-29 cells after 48 hrs by MTT assay
- Assay type: functional, cell-based
- CONDITION LABEL: HT-29, 48 h
EXPERIMENTAL READOUT: IC50 (µM)
One number for each entry, in µM.

Example compounds with recorded IC50:
Oc1ccc2c(c1)CCc1ccc(O)c(c1)Oc1ccc(cc1O)CCc1cccc(O)c1O2    15.9
Oc1ccc2cc1Oc1ccc(cc1)/C=C\c1cccc(O)c1Oc1ccccc1CC2    9.6
Oc1ccc2cc1Oc1ccc(cc1)CCc1cc(O)c(c(O)c1)Oc1cccc(c1)CC2    20.1
Oc1ccc2cc1Oc1ccc(cc1)CCc1cccc(O)c1Oc1ccc(cc1O)CC2    17

What value of IC50 on HT-29 does `Oc1cc2c(cc1O)Oc1c(O)cccc1CCc1ccc(cc1)Oc1cc(ccc1O)CC2` have?
7.51
